Experiment: Half life in ICR mouse at 3 mg/kg, iv
Assay type: ADME, organism-based
Details: in vivo

# Entry Smiles, Units Text, half-life
measured = [
    ("C=C(C)[C@@H]1CC[C@]2(C(=O)NCCCN(C)C)CC[C@]3(C)[C@H](CC[C@@H]4[C@@]5(C)CC[C@H](O)C(C)(C)[C@@H]5CC[C@]43C)[C@@H]12", "h", 4.5),
]

###

Experiment: Cmax in ICR mouse at 10 mg/kg, po
Type: ADME, organism-based
Conditions: in vivo
Observable: Cmax (ng/mL)

# Entry Smiles, Units Text, Obs Value
rows = [
    ("C=C(C)[C@@H]1CC[C@]2(C(=O)NCCCN(C)C)CC[C@]3(C)[C@H](CC[C@@H]4[C@@]5(C)CC[C@H](O)C(C)(C)[C@@H]5CC[C@]43C)[C@@H]12", "ng/mL", 114),
]
